Test system: normal primary NK cells, pool 1 (3 donors) (IL-2 2.5 ng/mL)
Test: percent inhibition of viability; higher = more inhibition;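 further: normalised to DMSO-only wells as negative and benzethonium chloride as positive control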
Conditions: 72 h; 100 nM
Measurement Name: percent inhibition of viability (%)
Give bare numbers, in %.

Batch: percent inhibition of viability for all items listed.
1. COc1ccc(-c2ccc3ncc4c(c3c2)n(-c2ccc(N3CCNCC3)c(C(F)(F)F)c2)c(=O)n4C)cn1 [NVP-BGT226] (max concentration tested 1000 nM)
2. CC(=O)Nc1ccc(C(=O)Nc2ccccc2N)cc1 [Tacedinaline] (max concentration tested 1000 nM)
3. Cc1c(NC(=O)OC[C@@H]2COCCN2)cn2ncnc(Nc3ccc4c(cnn4Cc4cccc(F)c4)c3)c12 (max concentration tested 10000 nM)
4. COc1cc2c(Oc3ccc(NC(=O)C4(C(=O)Nc5ccc(F)cc5)CC4)cc3F)ccnc2cc1OCCCN1CCOCC1 [Foretinib] (max concentration tested 1000 nM)
5. C#Cc1cccc(Nc2ncnc3cc(OCCOC)c(OCCOC)cc23)c1 [Erlotinib] (max concentration tested 10000 nM)
6. C[C@]12C=CC(=O)C=C1CC[C@@H]1[C@@H]2C(=O)C[C@@]2(C)[C@H]1CC[C@]2(O)C(=O)CO [Prednisone] (max concentration tested 10000 nM)
7. COc1ccc(-c2nc(N3CCOCC3)c3sc(CN(C)c4ncc(C(=O)NO)cn4)cc3n2)cn1 [CUDC-907] (max concentration tested 10000 nM)

1: 46.3; 2: 8.43; 3: -9.4; 4: 11.1; 5: 2.15; 6: 4.16; 7: 96.4

State recorded percent inhibition of viability for all listed compounds.
1. Cc1cc(OCc2nnc(SC3CCCC3)n2-c2cccnc2)ccc1-c1ccc(S(C)(=O)=O)cc1 [NMS-873] (max concentration tested 10000 nM)
2. CS(=O)(=O)N1CCc2c(-c3cnc(N)nc3)nc(N3CCOCC3)nc21 (max concentration tested 10000 nM)
3. Cc1ncc(-c2ccnc(Nc3ccc(S(C)(=O)=O)cc3)n2)n1C(C)C [AZD-5438] (max concentration tested 10000 nM)
4. CC(C)CC(=O)Nc1n[nH]c2c1CN(C(=O)C1CCN(C)CC1)C2(C)C (max concentration tested 10000 nM)
5. Nc1ccn([C@@H]2O[C@H](CO)[C@@H](O)C2(F)F)c(=O)n1 [Gemcitabine] (max concentration tested 1000 nM)

1. 22
2. 16.6
3. -17.5
4. 1.49
5. -1.17

----------
Could you please report measured percent inhibition of viability for the items listed next?
Tested on: normal primary NK cells, pool 2 (3 donors) (IL-2 2.5 ng/mL)
Experiment: percent inhibition of viability; higher = more inhibition
Settings: 72 h; 0.1 nM
Give bare numbers, in %.

- Molecule: "COc1cc2c(Oc3ccc(NC(=O)C4(C(=O)Nc5ccc(F)cc5)CC4)cc3F)ccnc2cc1OCCCN1CCOCC1 [Foretinib] (max concentration tested 1000 nM)"
  Measured On: "normal primary NK cells, pool 2 (3 donors) (IL-2 2.5 ng/mL)"
  percent inhibition of viability [%]: -11.2
- Molecule: "CC(=O)[C@]1(O)Cc2c(O)c3c(c(O)c2[C@@H](O[C@H]2C[C@H](N)[C@H](O)[C@H](C)O2)C1)C(=O)c1ccccc1C3=O [Idarubicin] (max concentration tested 1000 nM)"
  Measured On: "normal primary NK cells, pool 2 (3 donors) (IL-2 2.5 ng/mL)"
  percent inhibition of viability [%]: 6.51
- Molecule: "Cc1nc(Nc2ncc(C(=O)Nc3c(C)cccc3Cl)s2)cc(N2CCN(CCO)CC2)n1 [Dasatinib] (max concentration tested 1000 nM)"
  Measured On: "normal primary NK cells, pool 2 (3 donors) (IL-2 2.5 ng/mL)"
  percent inhibition of viability [%]: -3.84
- Molecule: "COc1cc2nccc(Oc3ccc(NC(=O)C4(C(=O)Nc5ccc(F)cc5)CC4)cc3)c2cc1OC [Cabozantinib] (max concentration tested 1000 nM)"
  Measured On: "normal primary NK cells, pool 2 (3 donors) (IL-2 2.5 ng/mL)"
  percent inhibition of viability [%]: -8.26

Below are some molecules; for each one, tell me its percent inhibition of viability.
1. CO[C@H]1C[C@@H]2CC[C@@H](C)[C@@](O)(O2)C(=O)C(=O)N2CCCC[C@H]2C(=O)O[C@H]([C@H](C)C[C@@H]2CC[C@@H](O)[C@H](OC)C2)CC(=O)[C@H](C)/C=C(\C)[C@@H](O)[C@@H](OC)C(=O)[C@H](C)C[C@H](C)/C=C/C=C/C=C/1C [Sirolimus] (max concentration tested 100 nM)
2. COc1ccc(-c2ccc3ncc4c(c3c2)n(-c2ccc(N3CCNCC3)c(C(F)(F)F)c2)c(=O)n4C)cn1 [NVP-BGT226] (max concentration tested 1000 nM)

1: 2; 2: -6.87

----------
System: IMC-1 (IL-2 20 ng/mL)
Assay: percent inhibition of viability; higher = more inhibition
Details: 72 h; 0.1 nM
Measurement Name: percent inhibition of viability (%)
Answers are plain numbers, in %.

Known results for molecules:
- Molecule: "Clc1ccccc1C(c1ccccc1)(c1ccccc1)n1cccn1 [TRAM-34] (max concentration tested 1000 nM)"
  Measurement Name: "percent inhibition of viability"
  Readout Number: -7.73
- Molecule: "O=C1c2c(O)ccc(O)c2C(=O)c2c(NCCNCCO)ccc(NCCNCCO)c21 [Mitoxantrone] (max concentration tested 1000 nM)"
  Measurement Name: "percent inhibition of viability"
  Readout Number: -4.49

Continue with the molecule presented below.
In one line, give reported percent inhibition of viability of the entry COc1cc2c(N3CCN(C(=O)Nc4ccc(OC(C)C)cc4)CC3)ncnc2cc1OCCCN1CCCCC1 [Tandutinib] (max concentration tested 1000 nM) . -5.53

----------
Exercise: state measured percent inhibition of viability for each of the compounds provided.
Test system: YT (IL-2 2.5 ng/mL)
Assay: percent inhibition of viability; higher = more inhibition
Details: 72 h; 100 nM
Answers are plain numbers, in %.

These solved cases illustrate the format of a correct answer.
- Compound: "CCC/C=C/C=C/C(=O)O[C@H]1/C(=C/C(=O)OC)C[C@H]2C[C@H]([C@@H](C)O)OC(=O)C[C@H](O)C[C@@H]3C[C@H](OC(C)=O)C(C)(C)[C@](O)(C[C@@H]4C/C(=C/C(=O)OC)C[C@H](/C=C/C(C)(C)[C@]1(O)O2)O4)O3 [Bryostatin 1] (max concentration tested 100 nM)"
  percent inhibition of viability [%]: 1.24
- Compound: "CCc1c(C(=O)C(N)=O)c2c(OCC(=O)O)cccc2n1Cc1ccccc1 [Varespladib] (max concentration tested 10000 nM)"
  percent inhibition of viability [%]: -14.4
- Compound: "Cc1nc(C(=O)NCC(=O)O)c(O)c2ccc(Oc3ccccc3)cc12 [FG-4592] (max concentration tested 10000 nM)"
  percent inhibition of viability [%]: -1.6
- Compound: "Cc1c(C(=O)Nc2ccc(N3C[C@@H](C)O[C@@H](C)C3)nc2)cccc1-c1ccc(OC(F)(F)F)cc1 [Sonidegib] (max concentration tested 10000 nM)"
  percent inhibition of viability [%]: 7.91
- Compound: "Cc1cc(Nc2cc(N3CCN(C)CC3)nc(/C=C/c3ccccc3)n2)n[nH]1 [ENMD-2076] (max concentration tested 10000 nM)"
  percent inhibition of viability [%]: 3.17

Hello, I would appreciate it if you could give percent inhibition of viability for each entry below.
1. C[C@@H]1COC(Nc2ccc3ncnc(Nc4ccc(OCc5nccs5)c(Cl)c4)c3c2)=N1 [Varlitinib] (max concentration tested 10000 nM)
2. CC(C)C[C@H](NC(=O)[C@@H](COC(C)(C)C)NC(=O)[C@H](Cc1ccc(O)cc1)NC(=O)[C@H](CO)NC(=O)[C@H](Cc1c[nH]c2ccccc12)NC(=O)[C@H](Cc1cnc[nH]1)NC(=O)[C@@H]1CCC(=O)N1)C(=O)N[C@@H](CCCNC(=N)N)C(=O)N1CCC[C@H]1C(=O)NNC(N)=O [Goserelin] (max concentration tested 10000 nM)
3. CC[C@@]1(O)C(=O)OCc2c1cc1n(c2=O)Cc2cc3c(CN(C)C)c(O)ccc3nc2-1 [Topotecan] (max concentration tested 10000 nM)

1: 4.78; 2: -5.17; 3: 83.4

I would be grateful if you could provide percent inhibition of viability for each of the following entries.
1. COc1cc2ncnc(Nc3ccc(F)c(Cl)c3)c2cc1NC(=O)/C=C/CN1CCCCC1 [Dacomitinib] (max concentration tested 1000 nM)
2. CNC(=O)c1ccc(C)c(-n2c(C)cc(OCc3ccc(F)cc3F)c(Br)c2=O)c1 (max concentration tested 1000 nM)

2.51
1.27

----------
Tested on: NKL (IL-2 2.5 ng/mL)
Assay: percent inhibition of viability; higher = more inhibition
Settings: 72 h; 1000 nM
Task for the reader: assign each of the following compounds its reported percent inhibition of viability.
One number for each entry, in %.

- Compound: "O[C@H]1CC[C@H](Nc2ncc3nc(Nc4c(F)cc(F)cc4F)n([C@H]4CCOC4)c3n2)CC1 [Tanzisertib] (max concentration tested 10000 nM)"
  Result Units: "%"
  percent inhibition of viability: 20.3
- Compound: "CCC1=C[C@@H]2CN(C1)Cc1c([nH]c3ccccc13)[C@@](C(=O)OC)(c1cc3c(cc1OC)N(C)[C@H]1[C@@](O)(C(=O)OC)[C@H](OC(C)=O)[C@]4(CC)C=CCN5CC[C@]31[C@@H]54)C2 [Vinorelbine] (max concentration tested 10000 nM)"
  Result Units: "%"
  percent inhibition of viability: 93.9
- Compound: "CC(C)C(=O)Nc1ccc([N+](=O)[O-])c(C(F)(F)F)c1 [Flutamide] (max concentration tested 10000 nM)"
  Result Units: "%"
  percent inhibition of viability: 5.38
- Compound: "O=C1CCC(N2C(=O)c3ccccc3C2=O)C(=O)N1 (stereo not given) [Thalidomide] (max concentration tested 10000 nM)"
  Result Units: "%"
  percent inhibition of viability: 13.7

Okay, now this compound:
Read off the recorded percent inhibition of viability for Cc1ccc(NC(=O)c2ccc(CN3CC[C@H](N(C)C)C3)c(C(F)(F)F)c2)cc1Nc1nccc(-c2cncnc2)n1 [Bafetinib] (max concentration tested 1000 nM) 50.2
